Exercise: for every item that follows, state its recorded log10 of microsomal CLint at 1 µM.
assay: Intrinsic clearance in rat liver microsomes at 1 uM measured after 15 to 30 mins in presence of NADPH generating system by LC/MS/MS analysis
Format: ADME, Microsome
measurement conditions: time 15-30 min, read-out: CLH
Values are log10 of microsomal CLint at 1 µM in µL/min/mg.

stdin: For the compound shown here, `CC(C)c1noc(N2CCC(Oc3cc(N4CCc5cc(N6CCOCC6=O)ccc54)ncn3)CC2)n1` , give the reported log10 of microsomal CLint at 1 µM.
stdout: 1.66

stdin: Value lookup for log10 of microsomal CLint at 1 µM; key = CC(C)c1noc(N2CCC(Oc3cc(N4CCc5cc(C6CCCCC6=O)ccc54)ncn3)CC2)n1 (racemic)
stdout: 2.15

stdin: Would you mind telling me what log10 of microsomal CLint at 1 µM value was observed for CC(C)c1noc(N2CCC(Oc3cc(N4CCc5cc(N6CCC(O)CC6=O)ccc54)ncn3)CC2)n1 (racemic) ?
stdout: 1.11

stdin: Any idea what log10 of microsomal CLint at 1 µM was measured for CCc1cnc(N2CCC(C(C)COC(=O)N3CCc4cc(S(C)(=O)=O)cc(F)c43)CC2)nc1 (stereo not given) ?
stdout: 2.56

stdin: What measured log10 of microsomal CLint at 1 µM goes with `CC(=O)N(C)c1ccc2c(c1)CCN2c1cc(OC2CCN(c3nc(C(C)C)no3)CC2)ncn1` ?
stdout: 1.23

====

assay: Intrinsic clearance in human liver microsomes at 1 uM measured after 15 to 30 mins in presence of NADPH generating system by LC/MS/MS analysis
Assay type: ADME, Microsome
measurement conditions: time 15-30 min, read-out: CLH
Each record is given Met if its reported microsomal CLint at 1 µM is strictly below 30 µL/min/mg. Records at or above 30 µL/min/mg are given Not met.

stdin: In the record for `CC(C)c1noc(N2CCC(Oc3cc(N4CCc5cc(N6CCC[C@H](O)C6=O)ccc54)ncn3)CC2)n1` , is microsomal CLint at 1 µM less than 30 µL/min/mg?
stdout: Met

stdin: Quick check: microsomal CLint at 1 µM of CCc1cnc(N2CCC(C(C)COC(=O)N3CCc4cc(S(C)(=O)=O)cc(F)c43)CC2)nc1 (stereo not given) under 30 µL/min/mg?
stdout: Not met

stdin: Field: below-cutoff. Rule: recorded microsomal CLint at 1 µM strictly less than 30 µL/min/mg. Subject: CC(C)c1noc(N2CCC(Oc3cc(N4CCc5cc(N6CCC(O)CC6=O)ccc54)ncn3)CC2)n1 (racemic)
stdout: Met

stdin: Is microsomal CLint at 1 µM strictly under 30 µL/min/mg for the entry `CC(C)c1noc(N2CCC(Oc3cc(N4CCc5cc(N6CCOCC6=O)ccc54)ncn3)CC2)n1` ?
stdout: Met

stdin: Say whether its microsomal CLint at 1 µM is strictly beneath 30 µL/min/mg. Entry: CC(C)c1noc(N2CCC(Oc3cc(N4CCc5cc(N6CC(O)CCC6=O)ccc54)ncn3)CC2)n1 (racemic)
stdout: Met

stdin: For this compound, is microsomal CLint at 1 µM lower than 30 µL/min/mg? `CC(C)c1noc(N2CCC(Oc3cc(N4CCc5cc(N6CCCS6(=O)=O)ccc54)ncn3)CC2)n1`
stdout: Met

stdin: Would you kindly verify if microsomal CLint at 1 µM of CC(C)c1noc(N2CCC(Oc3cc(N4CCc5cc(C6CCCCC6=O)ccc54)ncn3)CC2)n1 (racemic) is strictly less than 30 µL/min/mg?
stdout: Not met

stdin: Decide: microsomal CLint at 1 µM of `CC(C)c1noc(N2CCC(Oc3cc(N4CCc5cc(S(C)(=O)=O)ccc54)ncn3)CC2)n1` strictly below 30 µL/min/mg?
stdout: Not met

stdin: Problem: For the compound `CC(=O)N(C)c1ccc2c(c1)CCN2c1cc(OC2CCN(c3nc(C(C)C)no3)CC2)ncn1` , is microsomal CLint at 1 µM under 30 µL/min/mg?
stdout: Not met

stdin: # TODO verify microsomal CLint at 1 µM < 30 µL/min/mg strictly for this compound: `CC(C)c1noc(N2CCC(Oc3cc(N4CCc5cc(N6CCCNS6(=O)=O)ccc54)ncn3)CC2)n1`
stdout: Not met

====

target system: Glucose-dependent insulinotropic receptor (Mus musculus, UniProt Q7TQP3)
Sequence (Q7TQP3 whole entry): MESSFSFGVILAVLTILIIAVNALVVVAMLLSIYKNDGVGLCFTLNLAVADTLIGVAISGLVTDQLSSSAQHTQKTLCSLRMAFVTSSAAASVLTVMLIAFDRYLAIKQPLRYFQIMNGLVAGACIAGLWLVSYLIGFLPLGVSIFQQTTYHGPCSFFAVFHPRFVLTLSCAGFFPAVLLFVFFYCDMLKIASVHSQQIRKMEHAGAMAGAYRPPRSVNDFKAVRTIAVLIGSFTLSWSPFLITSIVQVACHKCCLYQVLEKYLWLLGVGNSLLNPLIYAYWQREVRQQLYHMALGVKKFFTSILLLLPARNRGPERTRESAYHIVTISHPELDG
assay: Agonist activity at GPR119 in glucose-induced mouse L cells assessed as induction of GLP-1 secretion after 2 hrs by ELISA
property label: EC50

stdin: Bench note: what EC50 did `CC(C)c1noc(N2CCC(Oc3cc(N4CCc5cc(N6CCC[C@H](O)C6=O)ccc54)ncn3)CC2)n1` show?
stdout: 19 nM

====

Would you kindly list inhibition at 5 min, 10 µM for each of these compounds?
target system: hERG (KCNH2) (Homo sapiens, UniProt Q12809)
Sequence (Q12809 whole entry): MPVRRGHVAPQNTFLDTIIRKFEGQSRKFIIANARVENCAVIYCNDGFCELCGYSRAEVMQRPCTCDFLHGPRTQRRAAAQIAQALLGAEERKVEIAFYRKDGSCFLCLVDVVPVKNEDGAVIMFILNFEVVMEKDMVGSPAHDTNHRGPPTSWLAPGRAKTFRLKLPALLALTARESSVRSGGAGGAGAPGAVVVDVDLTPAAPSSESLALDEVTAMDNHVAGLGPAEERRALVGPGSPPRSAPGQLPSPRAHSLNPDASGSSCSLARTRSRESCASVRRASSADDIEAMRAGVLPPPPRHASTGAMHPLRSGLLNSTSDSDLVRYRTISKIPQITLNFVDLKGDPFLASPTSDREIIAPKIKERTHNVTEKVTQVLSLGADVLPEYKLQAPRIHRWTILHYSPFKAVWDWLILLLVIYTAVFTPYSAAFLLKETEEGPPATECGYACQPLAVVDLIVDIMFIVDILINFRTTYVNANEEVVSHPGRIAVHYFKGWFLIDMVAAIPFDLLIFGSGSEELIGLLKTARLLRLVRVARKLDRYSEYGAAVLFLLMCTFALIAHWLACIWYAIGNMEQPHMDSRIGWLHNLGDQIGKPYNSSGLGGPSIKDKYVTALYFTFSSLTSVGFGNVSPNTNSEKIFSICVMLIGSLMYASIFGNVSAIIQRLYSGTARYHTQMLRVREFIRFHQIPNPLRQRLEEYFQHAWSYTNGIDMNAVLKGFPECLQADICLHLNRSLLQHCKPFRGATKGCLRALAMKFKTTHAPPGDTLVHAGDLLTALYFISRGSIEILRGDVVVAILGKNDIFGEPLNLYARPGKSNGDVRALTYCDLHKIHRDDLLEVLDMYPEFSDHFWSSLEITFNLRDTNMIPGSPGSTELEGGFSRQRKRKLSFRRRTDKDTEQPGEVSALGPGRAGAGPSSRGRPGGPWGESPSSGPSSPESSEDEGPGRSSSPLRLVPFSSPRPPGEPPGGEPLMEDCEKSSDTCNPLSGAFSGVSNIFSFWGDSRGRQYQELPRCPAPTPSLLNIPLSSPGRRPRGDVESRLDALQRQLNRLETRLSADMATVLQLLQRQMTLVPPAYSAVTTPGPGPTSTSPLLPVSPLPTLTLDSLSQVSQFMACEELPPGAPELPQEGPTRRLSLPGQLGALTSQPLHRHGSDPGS
assay: Inhibition of human ERG expressed in CHO cells at 10 uM incubated for 5 mins by patch-clamp assay relative to control
Assay type: cell-based
measurement conditions: CHO cells expressing human ERG

stdin: Provide value of inhibition at 5 min, 10 µM for this record tested with hERG (KCNH2) (Homo sapiens, UniProt Q12809): `CC(C)SC(=O)N1CCC(Oc2cc(N3CCc4ccccc43)ncn2)CC1`
stdout: 14%

stdin: Quick check: inhibition at 5 min, 10 µM on hERG (KCNH2) (Homo sapiens, UniProt Q12809), item CC(C)c1noc(N2CCC(Oc3cc(N4CCc5cc([S+]([O-])CCO)ccc54)ncn3)CC2)n1 (racemic) ?
stdout: 107%

stdin: Record lookup: for hERG (KCNH2) (Homo sapiens, UniProt Q12809), what inhibition at 5 min, 10 µM belongs to CC(C)c1noc(N2CCC(Oc3cc(N4CCc5cc(C6CCCCC6=O)ccc54)ncn3)CC2)n1 (racemic) ?
stdout: 13%

stdin: Lab note: need inhibition at 5 min, 10 µM for `CC(C)c1noc(N2CCC(Oc3cc(N4CCc5cc(N6CCC[C@H](O)C6=O)ccc54)ncn3)CC2)n1` on hERG (KCNH2) (Homo sapiens, UniProt Q12809), anyone have it?
stdout: 31%

stdin: What inhibition at 5 min, 10 µM appears in the records for this compound with hERG (KCNH2) (Homo sapiens, UniProt Q12809)? `CC(C)c1noc(N2CCC(Oc3cc(N4CCc5cc(N6CCOCC6=O)ccc54)ncn3)CC2)n1`
stdout: 54%

stdin: Under hERG (KCNH2) (Homo sapiens, UniProt Q12809): inhibition at 5 min, 10 µM value of `CC(C)c1noc(N2CCC(Oc3cc(N4CCc5cc(N6CCCCC6=O)ccc54)ncn3)CC2)n1` ?
stdout: 31%

stdin: Value wanted: inhibition at 5 min, 10 µM (hERG (KCNH2) (Homo sapiens, UniProt Q12809)) of entry `CC(C)c1noc(N2CCC(Oc3cc(N4CCc5cc(N6CCNCC6=O)ccc54)ncn3)CC2)n1`
stdout: 15%

====

Exercise: for every item that follows, state its recorded logD.
assay: Partition coefficient, logD between 1-octanol and pH 7.4 aqueous buffer by chromatographic analysis
Type: physicochemical
measurement conditions: 1-octanol/pH 7.4 aqueous buffer
# output: bare number, no unit

stdin: Record request: logD value, item `CC(C)c1noc(N2CCC(Oc3cc(N4CCc5cc(N6CCC[C@H](O)C6=O)ccc54)ncn3)CC2)n1`
stdout: 3.3

stdin: Requested field: logD. Item: CC(C)c1noc(N2CCC(Oc3cc(N4CCc5cc(C6CCCCC6=O)ccc54)ncn3)CC2)n1 (racemic)
stdout: 4.7

stdin: I have this compound here, `CC(C)c1noc(N2CCC(Oc3cc(N4CCc5cc(N6CCOCC6=O)ccc54)ncn3)CC2)n1` , and I need its recorded logD.
stdout: 3.1

stdin: Record request: logD value, item `CC(C)c1noc(N2CCC(Oc3cc(N4CCc5cc(N6CCCC6=O)ccc54)ncn3)CC2)n1`
stdout: 3.7

stdin: # query: logD of entry CC(C)c1noc(N2CCC(Oc3cc(N4CCc5cc(N6CC(O)CCC6=O)ccc54)ncn3)CC2)n1 (racemic)
stdout: 2.6

====

target system: hERG (KCNH2) (Homo sapiens, UniProt Q12809)
assay: Inhibition of human ERG expressed in CHO cells at 10 uM incubated for 5 mins by patch-clamp assay relative to control
Format: cell-based
measurement conditions: CHO cells expressing human ERG
Outcome label depends on inhibition at 5 min, 10 µM relative to 70%: at/above gives 1, below gives 0.

stdin: // inclusive: inhibition at 5 min, 10 µM at least 70%? input: CCc1cnc(N2CCC(C(C)COC(=O)N3CCc4cc(S(C)(=O)=O)cc(F)c43)CC2)nc1 (configuration not stated)
stdout: 1

stdin: Would you say `CC(C)c1noc(N2CCC(Oc3cc(N4CCc5cc(N6CCC[C@@H](O)C6=O)ccc54)ncn3)CC2)n1` shows inhibition at 5 min, 10 µM at minimum 70%?
stdout: 0

stdin: Is the recorded value of inhibition at 5 min, 10 µM equal to or greater than 70% for this molecule? `CC(C)c1noc(N2CCC(Oc3cc(N4CCc5cc(N6CCCC6=O)ccc54)ncn3)CC2)n1`
stdout: 0

stdin: Hello, I need to know if CC(C)c1noc(N2CCC(Oc3cc(N4CCc5cc(N6CCC(O)CC6=O)ccc54)ncn3)CC2)n1 (racemic) has measured inhibition at 5 min, 10 µM not below 70%. Thanks!
stdout: 0

stdin: Reported inhibition at 5 min, 10 µM reaches at least 70% for `CC(C)c1noc(N2CCC(Oc3cc(N4CCc5cc(S(=O)(=O)CCO)ccc54)ncn3)CC2)n1` ?
stdout: 1

stdin: Determine whether this molecule has inhibition at 5 min, 10 µM no lower than 70%: `CC(C)c1noc(N2CCC(Oc3cc(N4CCc5cc(N6CCCNS6(=O)=O)ccc54)ncn3)CC2)n1`
stdout: 0

stdin: Can `CC(=O)N(C)c1ccc2c(c1)CCN2c1cc(OC2CCN(c3nc(C(C)C)no3)CC2)ncn1` be said to have inhibition at 5 min, 10 µM at or above 70%?
stdout: 0
